- Test system: MCF7
- protocol_description: Compound was evaluated for cytotoxicity against MCF-7 cell lines.
- Format: functional, cell-based
- reported_conditions: Homo sapiens
observable: pIC50
Give bare numbers, as −log10 of the molar value.

These recorded examples may help you get a feel for the data.
CN(C)CCCNC(=O)c1cn2c(ccc3sc4ccccc4c(=O)c32)n1 | 4.95
O=C(NCCN1CCOCC1)c1cn2c(ccc3sc4ccccc4c(=O)c32)n1 | 5.15
CCOC(=O)c1cn2c(ccc3sc4ccccc4c(=O)c32)n1 | 4.07

Okay, now this compound:
Query :: Given the compound "O=C(NCCN1CCCC1)c1cn2c(ccc3sc4ccccc4c(=O)c32)n1" , write its reported pIC50.
Result :: 6.21

====

- protocol_description: Compound was evaluated for induced thermal stabilization for compound: DNA ratio of 1:10 at 0.1 to 0.2 degrees Centigrade.
- Set-up: unit: °C
Label rule, in plain words: Change in Tm of 6 and up is condition met, under 6 is condition not met.

Solved entries (count: 5):
CCOC(=O)c1cn2c(ccc3sc4ccccc4c(=O)c32)n1 | condition not met
O=C1c2c(O)ccc(O)c2C(=O)c2c(NCCNCCO)ccc(NCCNCCO)c21 [MITOXANTRONE] | condition met
CCN(CC)CCCNC(=O)c1cn2c(ccc3sc4ccccc4c(=O)c32)n1 | condition met
O=C(NCCN1CCOCC1)c1cn2c(ccc3sc4ccccc4c(=O)c32)n1 | condition not met
O=C(c1cn2c(ccc3sc4ccccc4c(=O)c32)n1)N1CCN(CCO)CC1 | condition not met

Query :: Change in Tm >= 6 for "CN(C)CCCNC(=O)c1cn2c(ccc3sc4ccccc4c(=O)c32)n1" ?
Result :: condition not met

Query :: Change in Tm >= 6 for "O=C(NCCN1CCCC1)c1cn2c(ccc3sc4ccccc4c(=O)c32)n1" ?
Result :: condition not met

Query :: Change in Tm >= 6 for Nc1ccc2cc3ccc(N)cc3nc2c1 [PROFLAVINE] ?
Result :: condition met

====

Exercise: for every item that follows, state its recorded IC50.
- Tested on: A2780
- protocol_description: Compound was evaluated for cytotoxicity against A2780 cell lines.
- Format: functional, cell-based
- reported_conditions: Homo sapiens

These recorded examples may help you get a feel for the data.
CCOC(=O)c1cn2c(ccc3sc4ccccc4c(=O)c32)n1 | > 100 µM
O=C(NCCN1CCCC1)c1cn2c(ccc3sc4ccccc4c(=O)c32)n1 | 4.5 µM

Query :: State recorded IC50 with A2780, entry "O=C(NCCN1CCCCC1)c1cn2c(ccc3sc4ccccc4c(=O)c32)n1" , no comment.
Result :: 0.56 µM

====

- System: A2780
- protocol_description: Compound was evaluated for cytotoxicity against A2780 cis cell lines.
- Format: functional, cell-based
- reported_conditions: Homo sapiens
IC50 under 0.8 µM gets Yes, anything at or over 0.8 µM gets No.

CCOC(=O)c1cn2c(ccc3sc4ccccc4c(=O)c32)n1 | No
O=C(NCCN1CCCC1)c1cn2c(ccc3sc4ccccc4c(=O)c32)n1 | No

Query :: Field: below-cutoff. Rule: recorded IC50 strictly less than 0.8 µM. Subject: "CN(C)CCCNC(=O)c1cn2c(ccc3sc4ccccc4c(=O)c32)n1"
Result :: Yes

====

- Tested on: A2780
- protocol_description: Compound was evaluated for cytotoxicity against A2780 cell lines.
- Type: functional, cell-based
- reported_conditions: Homo sapiens
IC50 under 500 nM gets 1.0, anything at or over 500 nM gets 0.0.

Query :: Field: below-cutoff. Rule: recorded IC50 strictly less than 500 nM. Subject: "O=C(c1cn2c(ccc3sc4ccccc4c(=O)c32)n1)N1CCN(CCO)CC1"
Result :: 0.0

Query :: Field: below-cutoff. Rule: recorded IC50 strictly less than 500 nM. Subject: "O=C1c2c(O)ccc(O)c2C(=O)c2c(NCCNCCO)ccc(NCCNCCO)c21"
Result :: 0.0

Query :: Field: below-cutoff. Rule: recorded IC50 strictly less than 500 nM. Subject: "O=C(NCCN1CCOCC1)c1cn2c(ccc3sc4ccccc4c(=O)c32)n1"
Result :: 0.0

Query :: Field: below-cutoff. Rule: recorded IC50 strictly less than 500 nM. Subject: "CCN(CC)CCCNC(=O)c1cn2c(ccc3sc4ccccc4c(=O)c32)n1"
Result :: 1.0

Query :: Field: below-cutoff. Rule: recorded IC50 strictly less than 500 nM. Subject: "CN(C)CCCNC(=O)c1cn2c(ccc3sc4ccccc4c(=O)c32)n1"
Result :: 0.0
